- Tested on: HS 578T breast
- protocol: NCI-60 one-dose screen, 48 h
- particulars: 10 µM unless noted
The panel holds about 83,000 compounds, 20% with a hit somewhere; the sample as a whole holds those more often. Active and inactive are the calls of the source. The calls were made as follows: active = growth percent below 10; inactive = the rest.
The reply should name one outcome from active, inactive

Please let me know the test result on file for NC(=O)c1cccc(-c2ccccc2N2CCCCC2)c1 .
inactive

Given O=C(/C=C\c1ccc(OCCCCCC[P+](c2ccccc2)(c2ccccc2)c2ccccc2)cc1)c1ccc2c(c1)OCCO2 , state the outcome it received in this test.
active

Check the results log: what was the call for CN(C)C(C(N)=O)c1ccc(Cl)cc1 (configuration not stated) ?
inactive

GET /call?item= CC(=O)c1cc2c(N)c(C(=O)Nc3cncc4ccccc34)sc2nc1C returns the recorded outcome of this test.
inactive

In this assay, the call recorded for COC(=O)C1NC(=S)N(c2ccc(Cl)cc2)C1/C=C/c1ccccc1 (configuration not stated) was what?
inactive

Recorded call for Cc1ccc2nc3c(cc2c1)CSc1nnc(-c2ccc[nH]c2=S)n1N3 ?
inactive

Could you please tell me the result logged for COc1cc(-c2cc(=O)oc3cc(O)ccc23)cc(OC)c1OC in this assay?
inactive

* * *

- Test system: KM12 colon
- protocol: NCI-60 one-dose screen, 48 h (100 = growth as untreated, 0 = no growth, -100 = all killed)
- particulars: 10 µM unless noted
- Experimental: Growth inhibition of the KM12 human tumor cell line is measured as a screen for anti-cancer activity. Cells are grown in 96 well plates and exposed to the test compound for 48 hours. Compounds are tested at a single concentration, which is 10^-5 M for most compounds. The reported endpoint is percent growth (GI% or GIPRCNT), where numbers from 0 - 100% represent growth inhibition, and numbers from -100% - 0 represent cell death. For example, a value of 40 represents 60% growth inhibition. […]
Compounds without any hit were thinned out: in the full panel of roughly 83,000, 20% have a hit.
outcomeMeasure: growth (%)
Return type: number; implicit unit %.

Query: growth; subject: Cn1c(COC(=O)N2CCCCC2)nc2c(N3CCOCC3)nc(-c3ccccc3)nc21
-73.8

What growth value was documented for this compound, Nc1ccccc1NC(=O)c1ccc(CN2CCC/C(=C\c3cccc(Cl)c3)C2=O)cc1 ?
4.58

Need growth of O=C1c2ccccc2C(=O)c2c(NCCN=Cc3ccccc3O)cccc21 , thanks.
48.7

Could you tell me which growth is on file for Cn1c(COC(=O)NCCN2CCOCC2)nc2c(N3CCOCC3)nc(-c3ccccc3)nc21 ?
-5.33

Please give the measured growth for this compound: O=CNc1cc(Cl)cc(Cl)c1
101

Which measured growth value corresponds to O=C(Nc1ccc2ncnc(Nc3ccc(Oc4cccc(F)c4)c(Cl)c3)c2c1)c1ccc(CNCCO)cc1 ?
12.9

Dear colleague, I am looking for the recorded growth of the following compound: CCCC/C(=N\N=C(N)N)c1ccc(F)cc1
15.7

* * *

- Tested on: 786-0 renal
- protocol: NCI-60 one-dose screen, 48 h
- particulars: 10 µM unless noted
This is part of a sample that, as a whole, favours compounds with a hit. Of some 83,000 tested, about 20% had one in any assay. Active and inactive are the calls of the source. How the source made its calls: active means growth percent below 10; inactive means the rest.
// classify into active, inactive

Please share the test call associated with Clc1nc(Nc2ccccc2)nc(Nc2ccccc2)n1 .
inactive

Hey, what did the test say about C=C(C)[C@@H]1CC[C@]2(C(=O)NCCCN(CCC#N)CCC#N)CC[C@]3(C)[C@H](CC[C@@H]4[C@@]5(C)CCC(=O)C(C)(C)[C@@H]5CC[C@]43C)[C@@H]12 ?
inactive

// param item: COc1ccc(-c2nc(N/N=C/c3cccc(O)c3)nc(N3CCOCC3)c2C#N)cc1 ; yields the recorded call
inactive

Please state the recorded outcome for this compound: COc1cc(C2CC(c3cccc(Nc4ccncc4)c3)=NN2c2cc(Cl)cc(Cl)c2)cc(OC)c1OC (centres undefined)
inactive

Fill in: this test's call for COc1ccccc1Nc1cc(O)c2c(=O)cc(-c3ccccc3)oc2c1 is ___
inactive

State the result this test recorded for Cc1[nH]n(C(=O)c2ccncc2)c(=O)c1N=Nc1ccc(F)c(Cl)c1 .
inactive

Identify the outcome logged in this assay for the compound shown: Cc1ccc(O)c(C(=O)O)c1
inactive

Please state the recorded outcome for this compound: COc1cccc(C(Cc2ccccc2)Nc2ccccc2)c1OC (centres undefined)
inactive

# fetch the recorded call for Cc1ccc(-c2c(Br)c(OC(=O)CO[C@@H]3C[C@H](C)CC[C@H]3C(C)C)c(-c3ccc(C)cc3C)c(Br)c2OC(=O)CO[C@H]2C[C@@H](C)CC[C@@H]2C(C)C)c(C)c1 here
inactive

GET /call?item= CC1=CC[C@@H]2CC[C@]3(C)[C@H](CC[C@@H]4[C@@]5(C)CCCNC(C)(C)[C@@H]5CC[C@]43C)[C@H]2[C@@H]1C returns the recorded outcome of this test.
active

Look up the recorded call for COc1ccccc1/C=C1\COc2ccc(-c3ccccc3)cc2C1=O in this test.
active

Each compound tested received a call. Report the one for O=C1NC(=S)NC(=O)C1=Cc1cccc(C=C2C(=O)NC(=S)NC2=O)c1 .
inactive

In this assay, the call recorded for COc1cc2nc(-c3ccc(C(F)(F)F)cc3)cc(OCCN3CCC(O)CC3)c2cc1OC was what?
inactive

For O=S(=O)(c1cccc(NC2=Nc3cccc4cccc2c34)c1)N1CCCC1 , what call appears in the results of this test?
inactive

What did this assay record as the result for CC(=O)CCSc1ccc(OC(C)=O)cc1 ?
inactive

Assay outcome for CCCCCCCC(=O)Nc1nc2[nH]c(CN3CCN(Cc4cccc(I)c4)CC3)c(CN3CCN(Cc4cccc(I)c4)CC3)c2c(=O)[nH]1 : what was it?
active

How did this test come out for O=C(CN1CCOCC1)Nc1ccc2ncnc(Nc3ccc(Oc4cccc(C(F)(F)F)c4)c(Cl)c3)c2c1 ?
inactive

Test call, this compound: CCN1C(=O)N(CC)C2NC(SC)=NC21 (centres undefined)
inactive

How was COc1ccc(CNC(=O)COc2ccc(/C=N/Nc3nc4ccccc4s3)cc2)cc1 classified in this test?
active

What call does the record list for CCCCCOc1ccc(/C=N/Nc2cc(C)nc3ccc(Br)cc23)cc1 ?
active

Each compound tested received a call. Report the one for COc1ccc(-c2cnc(N)nc2-c2ccc(OC)cc2O)cc1 .
inactive

Which outcome was entered for the compound CCC(=O)c1ccc(O)c(OC)c1 in this test?
active

Field: outcome | Entry: Clc1ccc(N2N=C(c3cccc(Nc4ccncc4)c3)CC2c2ccccc2)cc1 (centres undefined)
inactive

Hi, do you know how COc1cc2oc(-c3cccc(C(=O)Nc4ccc(Cl)cc4)c3)cc(=O)c2c(OC)c1OC came out in this test?
inactive

* * *

- Tested on: HOP-92 NSCLC
- protocol: NCI-60 one-dose screen, 48 h
- particulars: 10 µM unless noted
About 83,000 compounds went through this panel and 20% of them were active in at least one assay; those are over-represented in the sample as a whole. Active and inactive are the calls of the source. How the source made its calls: active means growth percent below 10; inactive means the rest.
Would you mind answering with one of these outcomes? yes (1) (active), no (0) (inactive)

Please state the recorded outcome for this compound: CCCCCCCCCCCCC1CCC/C=C\CCC(=O)O1 (stereo not given)
no (0)

I would be grateful if you could indicate the recorded call for CCCCCCCCN1C(=O)/C(=c2\sc3n(c2=O)C2C(NN=3)N(CC)C(=O)N2CC)c2ccccc21 (stereo not given) .
no (0)

What classification did CCN(CC)CCCC(C)Nc1cc(-c2cccc(OC(F)(F)F)c2)nc2ccc(N3CCCC3)cc12 (stereo not given) end up with in this test?
yes (1)

Hello, I am checking results. What call was entered for CC(=O)c1cccc(NS(=O)(=O)c2cccc(C(=O)Nc3ccc(Br)cc3)c2)c1 ?
no (0)

Give the logged outcome of this assay for the following compound: COc1ccccc1/C=N/NC1=NC2C(N1)N(C)C(=O)N2C (stereo not given)
no (0)

Query: recorded result category for O=C1Nc2ccccc2/C1=C\c1cccc(/C=C2/C(=O)Nc3ccccc32)n1 in this test
yes (1)

Recorded call for COc1cc(/C=C2\C(=O)N(Cc3ccc(Cl)cc3)c3ccccc32)cc(OC)c1OC ?
no (0)

Call for entry NNC(=O)/C(=C\c1ccc([N+](=O)[O-])cc1)CC(=O)c1ccc(Cl)c(Cl)c1 :
no (0)

Entry c1ccc(C2CC(c3cccc(Nc4ccncc4)c3)=NN2c2ccccc2)cc1 (stereo not given) : call = ?
no (0)

Per the assay record, what outcome was assigned to CC(=O)c1cc2c(N)c(C(=O)Nc3cncc4ccccc34)sc2nc1C ?
no (0)

Dear all, I need the recorded test outcome for COc1ccc(C(=O)/C=C/c2c(OC)cc(OC)cc2OC)c(OC)c1 , thank you.
no (0)

// param item: CCCCCCN(C)Cc1ccc(OCCOc2ccc(CN(C)CCCCCC)cc2)cc1 ; yields the recorded call
yes (1)

Any idea what this test logged for CCC(C)N(CCNc1cc(OC)cc2cccnc12)CCC(C)C (stereo not given) ?
no (0)

How did this test come out for COc1ccc(/C=C(/c2ccccc2)[N+](=O)[O-])cc1 ?
yes (1)

Kindly provide the recorded test outcome for the following compound: C=C1C(=O)O[C@H]2[C@H]1CC/C(COC(=O)NCCc1c[nH]c3ccc(Cl)cc13)=C\CC[C@@]1(C)O[C@@H]21
yes (1)
